Just for reference, patent US20240301068A1 is where these values come from.

biological target: recombinant human PD-L1 (Sino Biological Inc.) (human, UniProt Q9NZQ7 19-239); assay: affinity determination (dissociation constant), method not stated
Sequence (Q9NZQ7 19-239 limits assumed): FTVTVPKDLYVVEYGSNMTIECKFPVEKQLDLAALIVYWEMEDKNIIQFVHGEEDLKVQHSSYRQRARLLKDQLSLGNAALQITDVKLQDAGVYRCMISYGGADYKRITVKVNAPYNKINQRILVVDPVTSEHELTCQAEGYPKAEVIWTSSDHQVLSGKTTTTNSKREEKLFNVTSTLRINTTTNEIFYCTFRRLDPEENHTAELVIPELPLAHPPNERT
ATTRIBUTE_MEASURED: koff (s⁻¹)
Supply the numeric figure in s⁻¹, leaving out any unit text.

binder="humanized anti-human PD-L1 monoclonal antibody VLS10-VHS6 (antibody, human IgG1, kappa, V domains shown) VH: QVQLVQSGAEVKKPGSSVKVSCTASGFNIEDTYIHWVRQAPGQGLEWMGRIDPANGNTKYDPKFQGRATITADESTNTAYMELSSLRSEDTAVYYCGRGLGAWFAYWGQGTLVTVSS VL: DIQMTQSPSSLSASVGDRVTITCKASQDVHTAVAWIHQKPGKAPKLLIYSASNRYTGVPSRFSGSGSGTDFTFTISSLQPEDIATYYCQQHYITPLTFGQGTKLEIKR" result_units=s⁻¹ number=0.00121
binder="humanized anti-human PD-L1 monoclonal antibody VLS10-VHS8 (antibody, human IgG1, kappa, V domains shown) VH: QVQLVQSGAEVKKPGSSVKVSCTASGFNIEDTYIHWVRQAPGQGLEWMGRIDPANGNTKYDPKFQGRATITADTSTNTAYMELSSLRSEDTAVYYCGRGLGAWFAYWGQGTLVTVSS VL: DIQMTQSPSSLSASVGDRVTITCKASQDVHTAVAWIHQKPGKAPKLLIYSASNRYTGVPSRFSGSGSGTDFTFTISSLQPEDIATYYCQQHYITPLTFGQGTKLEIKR" result_units=s⁻¹ number=0.000652
binder="humanized anti-human PD-L1 monoclonal antibody VLS9-VHS3 (antibody, human IgG1, kappa, V domains shown) VH: QVQLVQSGAEVKKPGSSVKVSCTASGFNIEDTYIHWVRQAPGQGLEWMGRIDPANGNTKYDPKFQGRVTITADTSTSTAYMELSSLRSEDTAVYYCGRGLGAWFAYWGQGTLVTVSS VL: DIQMTQSPSSLSASVGDRVTITCKASQDVHTAVAWYQQKPGKAPKLLIYSASNRYTGVPSRFSGSGSGTDFTFTISSLQPEDIATYYCQQHYITPLTFGQGTKLEIKR" result_units=s⁻¹ number=0.0052
binder="humanized anti-human PD-L1 monoclonal antibody VLS9-VHS4 (antibody, human IgG1, kappa, V domains shown) VH: QVQLVQSGAEVKKPGSSVKVSCTASGFNIEDTYIHWVRQAPGQGLEWMGRIDPANGNTKYDPKFQGRVTITADESTNTAYMELSSLRSEDTAVYYCGRGLGAWFAYWGQGTLVTVSS VL: DIQMTQSPSSLSASVGDRVTITCKASQDVHTAVAWYQQKPGKAPKLLIYSASNRYTGVPSRFSGSGSGTDFTFTISSLQPEDIATYYCQQHYITPLTFGQGTKLEIKR" result_units=s⁻¹ number=0.00544
binder="humanized anti-human PD-L1 monoclonal antibody VLS15-VHS12 (antibody, human IgG1, kappa, V domains shown) VH: EVQLVQSGAEVKKPGSSVKVSCKASGFNIEDTYIHWVRQAPGQGLEWMGRIDPANGNTKYDPKFQGRVTITADTSTNTAYMELSSLRSEDTAVYYCGRGLGAWFAYWGQGTLVTVSS VL: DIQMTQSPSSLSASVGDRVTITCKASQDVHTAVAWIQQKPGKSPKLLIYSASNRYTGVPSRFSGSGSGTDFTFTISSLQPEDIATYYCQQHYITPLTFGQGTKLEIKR" result_units=s⁻¹ number=0.000486

// query Entry humanized anti-human PD-L1 monoclonal antibody VLS9-VHS5 (antibody, human IgG1, kappa, V domains shown) VH: QVQLVQSGAEVKKPGSSVKVSCTASGFNIEDTYIHWVRQAPGQGLEWMGRIDPANGNTKYDPKFQGRATITADTSTSTAYMELSSLRSEDTAVYYCGRGLGAWFAYWGQGTLVTVSS VL: DIQMTQSPSSLSASVGDRVTITCKASQDVHTAVAWYQQKPGKAPKLLIYSASNRYTGVPSRFSGSGSGTDFTFTISSLQPEDIATYYCQQHYITPLTFGQGTKLEIKR : reported koff = ?
// result 0.00438

// query Find the recorded koff belonging to humanized anti-human PD-L1 monoclonal antibody VLS15-VHS11 (antibody, human IgG1, kappa, V domains shown) VH: EVQLVQSGAEVKKPGSSVKVSCKASGFNIEDTYIHWVRQAPGQGLEWMGRIDPANGNTKYDPKFQGRVTITADESTNTAYMELSSLRSEDTAVYYCGRGLGAWFAYWGQGTLVTVSS VL: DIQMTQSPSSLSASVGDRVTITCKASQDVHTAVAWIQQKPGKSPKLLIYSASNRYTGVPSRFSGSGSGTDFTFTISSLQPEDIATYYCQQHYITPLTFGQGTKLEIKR and report it.
// result 0.000841

// query Recorded koff for humanized anti-human PD-L1 monoclonal antibody VLS10-VHS4 (antibody, human IgG1, kappa, V domains shown) VH: QVQLVQSGAEVKKPGSSVKVSCTASGFNIEDTYIHWVRQAPGQGLEWMGRIDPANGNTKYDPKFQGRVTITADESTNTAYMELSSLRSEDTAVYYCGRGLGAWFAYWGQGTLVTVSS VL: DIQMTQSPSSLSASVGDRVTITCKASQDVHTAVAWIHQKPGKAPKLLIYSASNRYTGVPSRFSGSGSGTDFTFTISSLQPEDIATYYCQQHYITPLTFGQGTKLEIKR , please?
// result 0.00156
